Tested on: U2OS
protocol: Multiplex assay against U2OS
Assay type: toxicity, cell-based
assay_context: human, 12 h, 1 µM, compound concentration 1 uM, replicate 2
Each entry below carries its reported Total Cell Count.
Please state the value as a number alone, without comment.

[
  {
    "molecule": "O=C(NCCO)c1cccc(-c2cc(Nc3ccc(OC(F)(F)F)cc3)ncn2)c1",
    "Total Cell Count": 128
  }
]

Task: Enter reported Total Cell Count observed with U2OS for N[C@@]1(C(=O)O)CO[C@H]2[C@H](C(=O)O)[C@H]21
Result: 108

Task: Total Cell Count of Cc1ccccc1C(=O)Nc1ccc(C(=O)N2CCCC(N(C)C)c3ccccc32)cc1.Cl (centres undefined) on U2OS?
Result: 157

Task: Fill in the recorded Total Cell Count for this molecule, with U2OS as test system: Oc1c(CN2CCN(c3ccccn3)CC2)cc(Cl)c2cccnc12
Result: 93

Task: API: value(readout=Total Cell Count, system=U2OS) for record CCCn1c(=O)c2[nH]c(C3CCCC3)nc2n(CCC)c1=O
Result: 125

Task: Form: Entry = O=S(=O)(c1ccccc1)c1cnc2c(N3CCNCC3)cccc2c1 [INTEPIRDINE] | System = U2OS | Total Cell Count = ____
Result: 88

Task: // fetch U2OS Total Cell Count for CCOc1c2c(c(OCC)c3ncccc13)CN(c1ccc(CS(=O)(=O)NC(=O)Cc3ccccc3OC)cc1C)C2=O
Result: 93

Task: Kindly state the measured Total Cell Count obtained for COc1ccc2c(c1)C(C(=O)N(Cc1ccc(N(C)C)cc1)c1ccc(C(C)C)cc1)CCC2.Cl (centres undefined) with U2OS.
Result: 122

Task: U2OS / Total Cell Count / C[C@H]1[C@H]2CC[C@H]3[C@@H]4CC=C5C[C@@H](N(C)C)CC[C@]5(C)[C@H]4CC[C@]23CN1C : value?
Result: 124
